# ASSAYED SYSTEM: NLRP3 (Homo sapiens, UniProt Q96P20)
# Sequence (Q96P20 whole entry): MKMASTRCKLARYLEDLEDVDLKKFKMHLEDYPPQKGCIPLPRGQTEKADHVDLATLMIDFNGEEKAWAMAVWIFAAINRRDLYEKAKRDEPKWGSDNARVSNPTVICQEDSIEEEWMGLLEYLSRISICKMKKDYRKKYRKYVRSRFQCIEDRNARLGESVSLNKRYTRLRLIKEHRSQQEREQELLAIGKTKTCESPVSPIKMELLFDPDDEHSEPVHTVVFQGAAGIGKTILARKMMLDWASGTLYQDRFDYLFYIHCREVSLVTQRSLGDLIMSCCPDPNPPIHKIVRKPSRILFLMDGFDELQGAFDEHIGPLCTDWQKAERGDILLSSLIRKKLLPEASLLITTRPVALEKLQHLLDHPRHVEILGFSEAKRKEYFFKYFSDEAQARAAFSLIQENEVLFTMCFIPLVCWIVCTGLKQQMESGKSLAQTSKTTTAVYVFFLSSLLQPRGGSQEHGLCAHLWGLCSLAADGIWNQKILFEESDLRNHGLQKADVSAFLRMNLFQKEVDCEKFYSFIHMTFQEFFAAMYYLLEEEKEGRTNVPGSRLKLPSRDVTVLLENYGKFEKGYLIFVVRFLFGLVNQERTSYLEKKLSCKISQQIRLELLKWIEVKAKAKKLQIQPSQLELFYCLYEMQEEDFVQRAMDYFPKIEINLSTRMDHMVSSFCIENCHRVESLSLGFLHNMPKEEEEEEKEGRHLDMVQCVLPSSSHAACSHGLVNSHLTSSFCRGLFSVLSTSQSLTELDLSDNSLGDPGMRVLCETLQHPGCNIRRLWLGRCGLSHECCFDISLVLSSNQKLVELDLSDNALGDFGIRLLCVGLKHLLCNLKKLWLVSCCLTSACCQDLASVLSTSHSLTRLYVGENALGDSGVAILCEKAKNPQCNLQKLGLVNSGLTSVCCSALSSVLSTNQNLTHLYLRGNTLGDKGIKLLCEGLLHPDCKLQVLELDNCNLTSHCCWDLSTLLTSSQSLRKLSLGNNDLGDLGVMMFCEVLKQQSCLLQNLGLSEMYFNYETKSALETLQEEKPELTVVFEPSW
# PROTOCOL DESCRIPTION: Measurement of IL-1β production in PMA-differentiated THP-1 cells (NLRP3 hIL1B)
# CONDITIONS USED: one or more of the described procedures
Listed here: items and their measured pIC50.
Give only the number. pIC50 is defined as minus log10 of concentration in molar units.

// below: answered molecules
[
  {
    "MOLECULE": "Nc1nc2cc(-c3cc[nH]n3)ccc2c2c1nc(CCNC(=O)c1ccc(F)cn1)n2CC(F)F",
    "pIC50": 6.47
  },
  {
    "MOLECULE": "COc1ccc(C(=O)NCCc2nc3c(N)nc4cc(-c5cc[nH]n5)ccc4c3n2C2CCC2)nc1",
    "pIC50": 6.74
  },
  {
    "MOLECULE": "CC(C)n1c(CNC(=O)C2CCCO2)nc2c(N)nc3cc(-c4cc[nH]n4)ccc3c21 (centres unmarked)",
    "pIC50": 6.66
  },
  {
    "MOLECULE": "Nc1nc2cc(-c3cc[nH]n3)ccc2c2c1nc(CCNC(=O)c1ccccn1)n2C1CCC1",
    "pIC50": 6.39
  },
  {
    "MOLECULE": "Nc1nc2cc(-c3cc[nH]n3)ccc2c2c1nc(CCNC(=O)c1csc(Cl)n1)n2CC(F)F",
    "pIC50": 6.23
  }
]

pIC50 lookup needed for `CC(C)n1c(CNC(=O)c2ccccn2)nc2c(N)nc3cc(-c4cc[nH]n4)ccc3c21` , thanks.
6.62

Next molecule: `Nc1nc2cc(-c3cc[nH]n3)ccc2c2c1nc(CCNC(=O)c1ccc(F)cn1)n2C1CCC1`
6.92

Query Nc1nc2cc(-c3cc[nH]n3)ccc2c2c1nc(CNC(=O)C1CCCCO1)n2CC(F)F (centres unmarked) next
6.10

====

# ASSAYED SYSTEM: NLRP3 (Homo sapiens, UniProt Q96P20)
# Construct: host or cells: THP-1 cells, PMA-differentiated
# PROTOCOL DESCRIPTION: Measurement of IL-1β production in PMA-differentiated THP-1 cells (NLRP3 hIL1B)
# Assay type: cell-based
# CONDITIONS USED: one or more of the described procedures
Parameter: log10(IC50). Scope: all listed entries.
The base-10 logarithm of IC50, taken with IC50 in µM, is what appears here.

Study these solved cases before continuing.
[
  {
    "MOLECULE": "CC(C)n1c(CCNC(=O)C2CCCO2)nc2c(N)nc3cc(-c4cc[nH]n4)ccc3c21 (centres unmarked)",
    "log10(IC50)": 0.29
  },
  {
    "MOLECULE": "COc1ccc(C(=O)NCCc2nc3c(N)nc4cc(-c5cc[nH]n5)ccc4c3n2C(C)C)nc1",
    "log10(IC50)": -0.57
  },
  {
    "MOLECULE": "Nc1nc2cc(-c3cc[nH]n3)ccc2c2c1nc(CCNC(=O)c1ccc(F)cn1)n2C1CC1",
    "log10(IC50)": -0.57
  },
  {
    "MOLECULE": "Nc1nc2cc(-c3cc[nH]n3)ccc2c2c1nc(CCNC(=O)c1ccccn1)n2C1CC1",
    "log10(IC50)": -0.36
  },
  {
    "MOLECULE": "CC(C)n1c(CNC(=O)C2CCCCO2)nc2c(N)nc3cc(-c4cc[nH]n4)ccc3c21 (centres unmarked)",
    "log10(IC50)": -0.57
  },
  {
    "MOLECULE": "CC(C)n1c(CCNC(=O)c2ccccn2)nc2c(N)nc3cc(-c4cc[nH]n4)ccc3c21",
    "log10(IC50)": -1.15
  },
  {
    "MOLECULE": "Nc1nc2cc(-c3cc[nH]n3)ccc2c2c1nc(CCNC(=O)C1CCCCO1)n2CC(F)F (centres unmarked)",
    "log10(IC50)": 0.12
  }
]

Now turn to the next molecule.
Which log10(IC50) reading was recorded for the molecule `CC(C)n1c(CCNC(=O)c2ccc(F)cn2)nc2c(N)nc3cc(-c4cc[nH]n4)ccc3c21` ?
-0.92

====

# ASSAYED SYSTEM: NLRP3 (Homo sapiens)
# PROTOCOL DESCRIPTION: Measurement of IL-1β production in PMA-differentiated THP-1 cells (NLRP3 hIL1B)
# CONDITIONS USED: one or more of the described procedures
# Method: Measurement of IL-1β Production in PMA-Differentiated THP-1 Cells (§1) THP-1 cells were purchased from the American Type Culture Collection and sub-cultured according to instructions from the supplier. […] Cell free supernatant was collected and the production of IL-1β was evaluated by ELISA. […] as §1
Quick list: IC50 per entry.
Quick reminder: number only, in µM, skip the unit.

[
  {
    "MOLECULE": "CC(C)n1c(CCNC(=O)c2csc(Cl)n2)nc2c(N)nc3cc(-c4cc[nH]n4)ccc3c21 [Example 10]",
    "DISPLAY UNIT": "µM",
    "RECORDED MEASUREMENT": 0.16
  },
  {
    "MOLECULE": "Nc1nc2cc(-c3cc[nH]n3)ccc2c2c1nc(CNC(=O)C1CCCO1)n2CC(F)F (stereo not shown) [Example 20]",
    "DISPLAY UNIT": "µM",
    "RECORDED MEASUREMENT": 1.88
  },
  {
    "MOLECULE": "COc1ccc(C(=O)NCCc2nc3c(N)nc4cc(-c5cc[nH]n5)ccc4c3n2C2CC2)nc1 [Example 13]",
    "DISPLAY UNIT": "µM",
    "RECORDED MEASUREMENT": 1.24
  }
]

Let's switch to this molecule now.
Please look up its IC50: Nc1nc2cc(-c3cc[nH]n3)ccc2c2c1nc(CCNC(=O)c1ccccn1)n2CC(F)F [Example 3]
0.22

====

# ASSAYED SYSTEM: UniProt:Q9NYK1
# Sequence (Q9NYK1 27-1049): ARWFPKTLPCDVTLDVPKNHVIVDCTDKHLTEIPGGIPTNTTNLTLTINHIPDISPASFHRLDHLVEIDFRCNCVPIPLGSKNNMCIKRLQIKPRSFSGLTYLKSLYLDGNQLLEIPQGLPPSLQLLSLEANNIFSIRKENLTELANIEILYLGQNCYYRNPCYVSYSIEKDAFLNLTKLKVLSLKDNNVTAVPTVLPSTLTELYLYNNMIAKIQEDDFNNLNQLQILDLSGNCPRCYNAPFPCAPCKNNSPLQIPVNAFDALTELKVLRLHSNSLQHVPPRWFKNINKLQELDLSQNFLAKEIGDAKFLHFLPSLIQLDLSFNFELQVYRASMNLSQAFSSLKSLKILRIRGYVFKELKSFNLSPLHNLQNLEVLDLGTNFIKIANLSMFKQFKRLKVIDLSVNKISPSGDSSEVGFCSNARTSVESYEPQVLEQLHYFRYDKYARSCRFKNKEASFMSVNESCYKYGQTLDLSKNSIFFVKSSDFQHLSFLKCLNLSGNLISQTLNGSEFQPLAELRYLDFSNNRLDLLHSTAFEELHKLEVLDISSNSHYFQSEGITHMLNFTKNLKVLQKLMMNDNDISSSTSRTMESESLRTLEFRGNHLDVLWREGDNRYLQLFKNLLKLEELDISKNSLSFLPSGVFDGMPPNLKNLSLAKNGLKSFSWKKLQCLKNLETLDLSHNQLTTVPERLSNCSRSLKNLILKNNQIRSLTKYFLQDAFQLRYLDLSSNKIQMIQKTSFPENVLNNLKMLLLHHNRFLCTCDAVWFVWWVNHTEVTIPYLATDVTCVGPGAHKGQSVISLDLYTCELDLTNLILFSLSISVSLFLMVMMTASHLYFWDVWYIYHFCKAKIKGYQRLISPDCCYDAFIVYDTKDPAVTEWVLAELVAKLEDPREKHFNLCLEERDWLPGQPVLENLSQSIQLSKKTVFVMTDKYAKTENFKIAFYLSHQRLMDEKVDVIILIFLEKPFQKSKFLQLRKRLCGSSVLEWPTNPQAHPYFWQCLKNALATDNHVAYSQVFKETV
# PROTOCOL DESCRIPTION: In vitro human TLR7 reporter assay (HEK-Blue, NF-kB/AP1-inducible SEAP)
# CONDITIONS USED: HEK-Blue cells co-expressing TLR7 and SEAP reporter, 18 h; read-out: TLR7 agonist EC50
PROPERTY: EC50

Endpoint output: EC50 of Nc1nc2cc(-c3cc[nH]n3)ccc2c2c1nc(CNC(=O)C1CCCCO1)n2CC(F)F (stereo not shown) . Value?
20 to 100 µM

====

# ASSAYED SYSTEM: human TLR8 (Homo sapiens)
# Sequence (Q9NR97 27-1041): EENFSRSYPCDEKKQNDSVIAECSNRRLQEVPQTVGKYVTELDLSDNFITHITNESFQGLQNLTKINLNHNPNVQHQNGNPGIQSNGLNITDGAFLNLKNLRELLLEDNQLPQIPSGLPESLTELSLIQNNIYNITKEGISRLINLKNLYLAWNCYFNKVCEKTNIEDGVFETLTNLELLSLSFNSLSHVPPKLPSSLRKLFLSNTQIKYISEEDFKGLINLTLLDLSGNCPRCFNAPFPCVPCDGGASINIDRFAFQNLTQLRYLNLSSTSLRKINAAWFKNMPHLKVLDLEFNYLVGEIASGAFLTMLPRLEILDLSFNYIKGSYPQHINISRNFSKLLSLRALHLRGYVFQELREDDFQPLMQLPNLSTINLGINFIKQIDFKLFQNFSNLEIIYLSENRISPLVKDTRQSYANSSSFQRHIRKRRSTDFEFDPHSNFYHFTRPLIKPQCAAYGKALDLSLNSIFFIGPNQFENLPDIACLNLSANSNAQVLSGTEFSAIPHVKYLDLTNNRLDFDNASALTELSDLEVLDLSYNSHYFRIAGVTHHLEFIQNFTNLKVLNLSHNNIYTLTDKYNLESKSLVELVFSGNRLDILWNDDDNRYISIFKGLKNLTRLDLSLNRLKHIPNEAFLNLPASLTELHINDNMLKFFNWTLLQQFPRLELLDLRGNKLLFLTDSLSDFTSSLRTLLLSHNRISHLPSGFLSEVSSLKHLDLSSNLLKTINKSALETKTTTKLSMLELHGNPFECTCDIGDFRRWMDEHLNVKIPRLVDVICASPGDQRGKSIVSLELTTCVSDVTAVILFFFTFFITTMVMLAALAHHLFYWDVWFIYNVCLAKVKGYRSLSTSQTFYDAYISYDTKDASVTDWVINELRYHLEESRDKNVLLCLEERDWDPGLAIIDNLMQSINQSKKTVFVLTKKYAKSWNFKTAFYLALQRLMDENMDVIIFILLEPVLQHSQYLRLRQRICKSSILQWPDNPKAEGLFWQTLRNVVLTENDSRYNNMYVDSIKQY
# PROTOCOL DESCRIPTION: In vitro human TLR8 reporter assay (HEK-Blue, NF-kB/AP1-inducible SEAP)
# CONDITIONS USED: HEK-Blue cells co-expressing TLR8 and SEAP reporter, 18 h; read-out: TLR8 agonist EC50
pEC50: −log10 of the molar value.
Reported pEC50 values are given for each entry in this list.

[
  {
    "COMPOUND": "Nc1nc2cc(-c3cc[nH]n3)ccc2c2c1nc(CNC(=O)C1CCCCO1)n2CC(F)F (centres unmarked) [Example 19]",
    "pEC50": "4.00 to 4.70"
  }
]

Consider the compound shown here: CC(C)n1c(CNC(=O)c2ccccn2)nc2c(N)nc3cc(-c4cc[nH]n4)ccc3c21 [Example 14] What is its recorded pEC50?
4.00 to 4.70
